# measured.target: T1, SARS-CoV-2 RBD (Wuhan-1) (SARS-CoV-2, Wuhan-1, UniProt P0DTC2)
# T1 construct: source: Expi293, transfected, purified (Ni-NTA, SEC)
# assay.details: SPR
# stated.conditions: both partners purified

binder	endpoint.unit	Kd
eCC6.33.9 (antibody, V domains shown, copies: 2 + 2) VH: QVQLVQSGAEVKKPGSSVKVSCKSSGGTFSSSAYSWVRQAPGQGLEWMGTIIPILDITNYAQKFQGRVTITADKSTSTAFMELSSLRSEDTAVYYCAQRNQWDLIVYWGQGTLVTVSS VL: EIVLTQSPGTLSLSPGERATLSCRASQWVSSSYIAWYQQKPGQAPRLLIYGAESRATGIPDRFSGSGSGTDFTLTISRLEPEDFAVYYCQHYGSSSWTFGQGTKLEIK	nM	14.3
